Below: a set of entries, each annotated with reported koff.
target or test system: T1, human VEGF (hVEGF) (human, UniProt P15692 181-395);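 also: fab variants flowed over hVEGF immobilized on a CM5 chip, rate constants from a one-to-one Langmuir fit, Kd taken as koff over kon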
T1 construct: also called VEGF-A
T1 sequence: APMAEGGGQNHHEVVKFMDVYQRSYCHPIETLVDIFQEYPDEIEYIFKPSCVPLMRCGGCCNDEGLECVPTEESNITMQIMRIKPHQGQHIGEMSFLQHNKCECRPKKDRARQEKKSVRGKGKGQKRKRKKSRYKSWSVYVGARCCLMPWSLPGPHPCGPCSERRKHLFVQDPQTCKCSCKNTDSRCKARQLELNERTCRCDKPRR
protocol description: SPR
property: koff (s⁻¹)

[
  {
    "binder": "G6.31 AAEE (LC-N94A.LC-F83A.HC-A40E.HC-T57E) (Fab, V domains shown, Fab; also called HC-A40E, HC-T57E, LC-F83A, LC-N94A) VH: EVQLVESGGGLVQPGGSLRLSCAASGFTISDYWIHWVRQEPGKGLEWVAGITPAGGYEYYADSVKGRFTISADTSKNTAYLQMNSLRAEDTAVYYCARFVFFLPYAMDYWGQGTLVTVSS VL: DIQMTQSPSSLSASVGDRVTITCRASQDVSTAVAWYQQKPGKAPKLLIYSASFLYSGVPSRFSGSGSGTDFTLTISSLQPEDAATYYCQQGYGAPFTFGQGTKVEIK",
    "experimental result": 0.000741
  },
  {
    "binder": "HCLC3 (Fab, V domains shown, Fab) VH: EEQLVEEGGGLVQPGESLELSCAASGFEISDYWIHWVRQEPGEGLEWVAGITPAGGYEYYADSVEGRFTISADTSENTAYLQMNELRAEDTAVYYCARFVFFLPYAMDYWGQGELVTVSS VL: DIQMTQSPESLSASVGDEVTITCRASQDVSTAVAWYQQKPGEAPKLLIYSASFLYSGVPSRFSGSGSGTDFTLTISSLQPEDAATYYCQQGYGAPFTFGQGTKVEIK",
    "experimental result": 0.000608
  },
  {
    "binder": "HCLC1 (Fab, V domains shown, Fab) VH: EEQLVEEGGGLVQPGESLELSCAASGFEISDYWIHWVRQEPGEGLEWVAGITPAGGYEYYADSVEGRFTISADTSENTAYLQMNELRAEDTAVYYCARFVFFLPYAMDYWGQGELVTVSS VL: DIQMTQSPESLSASVGDEVTITCRASQDVSTAVAWYQQKPGKAPKLLIYSASFLYSGVPSRFSGSGSGTDFTLTISSLQPEDAATYYCQQGYGAPFTFGQGTKVEIK",
    "experimental result": 0.000607
  }
]
